Target: beta amyloid peptide (1-40) (Homo sapiens)
Construct: beta amyloid peptide (1-40)
Sequence (P05067 672-711 limits assumed): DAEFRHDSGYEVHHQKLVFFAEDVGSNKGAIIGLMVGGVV
Test: in vitro amyloid aggregation assay (filtration of I125-labeled peptide aggregates)
Settings: beta amyloid peptide (1-40) with I125 labeled peptide, sodium phosphate buffer pH 6.0, 2 hours at room temperature; read-out: IC50, concentration required to cause a 50% inhibition of amyloid aggregation
endpointName: IC50 (µM)

compound=CCN(CC)CCNc1ccc([N+](=O)[O-])c2[nH]c3ccccc3c(=O)c12 quantitativereadout=29.5
compound=CCN(CC)CCNc1ccc([N+](=O)[O-])c2[nH]c3ccc(O)cc3c(=O)c12 quantitativereadout=20.5
compound=CSc1ccc2[nH]c3c([N+](=O)[O-])ccc(NCCCN(C)C)c3c(=O)c2c1 quantitativereadout=7.1
compound="CCOc1ccc2[nH]c3c([N+](=O)[O-])ccc(NC(C)CN(C)C)c3c(=O)c2c1 (stereo not drawn)" quantitativereadout=24.3
compound=CCN(CC)CCNc1ccc([N+](=O)[O-])c2[nH]c3cc(OC)c(OC)cc3c(=O)c12 quantitativereadout=11
compound=CCN(CC)CCNc1ccc([N+](=O)[O-])c2c1c(=O)c1cc(OC)ccc1n2C quantitativereadout=23.2
compound=CCN(CC)CCNc1ccc([N+](=O)[O-])c2[nH]c3cc(Cl)c(OC)cc3c(=O)c12 quantitativereadout=18.7
compound=CCOc1ccc2[nH]c3c([N+](=O)[O-])ccc(NCCN(CCO)CCO)c3c(=O)c2c1 quantitativereadout=20
compound=CCN(CC)CCNc1ccc([N+](=O)[O-])c2[nH]c3ccc(OC)cc3c(=O)c12 quantitativereadout=13.9

---

Target: beta amyloid peptide (1-40) (Homo sapiens)
Construct: beta amyloid peptide (1-40)
Assay: in vitro amyloid aggregation assay (filtration of I125-labeled peptide aggregates)
Conditions: beta amyloid peptide (1-40) with I125 labeled peptide, sodium phosphate buffer pH 6.0, 2 hours at room temperature; read-out: IC50, concentration required to cause a 50% inhibition of amyloid aggregation
endpointName: IC50

structuresmiles=CCN(CC)CCCNc1ccc([N+](=O)[O-])c2[nH]c3ccc(OC)cc3c(=O)c12 result="21 µM"
structuresmiles=CCN(CC)CCNc1ccc([N+](=O)[O-])c2[nH]c3ccc(OCCN(CC)CC)cc3c(=O)c12 result="35.6 µM"
structuresmiles=CCN(CC)CCNc1ccc([N+](=O)[O-])c2[nH]c3ccc(SC)cc3c(=O)c12 result="9 µM"
structuresmiles=CCCCOc1ccc2[nH]c3c([N+](=O)[O-])ccc(NCCN(C)C)c3c(=O)c2c1 result="25 µM"
